experiment: fission yeast growth modulation, primary screen, strain 972, OD600, 24 h, no modulator (AID 1090);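 also: basal condition with compound alone and no growth modifier present; test concentration not given here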; conditions: S. pombe 972 growth, higher = more signal, called active from +8 up or from −8 down
Answer NO if z-score is under -0.1, and YES if it is -0.1 or more.

// below: answered compounds
compound	label
CCOC(=O)C[C@H]1[C@H](OC(=O)c2ccccc2-c2ccccc2)[C@@H](NC(=O)C2CCCCC2)c2cc(OCCCO)ccc2N1C(=O)Cc1ccc(OC)cc1	YES
CC(C)N1C(=O)c2ccccc2[C@@H](C(=O)NC2CC2)[C@@H]1c1ccc(CO)cc1	NO

# check: z-score of COCCCNC(=O)[C@]1(CCS(=O)(=O)c2ccccc2)N=C(c2ccc(OCCCO)cc2)O[C@@H]1c1ccccc1N=[N+]=[N-] is greater than or equal to -0.1
YES

Assess whether reported z-score for [N-]=[N+]=NCc1ccccc1[C@H]1OC(c2ccc(OCCCO)cc2)=N[C@@]1(CCS(=O)(=O)c1ccccc1)C(=O)NCC(O)CO (stereo not given in full) sits at -0.1 or higher.
NO

Values were extracted from PubChem BioAssay.
